B1: WW domain-containing transcription regulator protein 1, residues 116 to 162; numbered along this chain, Q9GZV5 (parent)
chain: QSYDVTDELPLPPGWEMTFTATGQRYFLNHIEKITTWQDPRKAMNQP

- Variants of: B1
- protocolSummary: abundance fitness (aPCA) (normalised: wild type 0, dead -1); higher = more abundant; growth selection in yeast, the domain comes from the species named
- experimentalSetup: Homo sapiens
quantityMeasured: abundance fitness

[
  {
    "mutationLabel": "P12D",
    "quantityMeasured": "abundance fitness",
    "reported": -0.604
  },
  {
    "mutationLabel": "T20C",
    "quantityMeasured": "abundance fitness",
    "reported": -0.356
  },
  {
    "mutationLabel": "L9R",
    "quantityMeasured": "abundance fitness",
    "reported": 0.027
  },
  {
    "mutationLabel": "L28T",
    "quantityMeasured": "abundance fitness",
    "reported": -0.096
  },
  {
    "mutationLabel": "Q24T",
    "quantityMeasured": "abundance fitness",
    "reported": -0.178
  },
  {
    "mutationLabel": "Y26R",
    "quantityMeasured": "abundance fitness",
    "reported": -0.487
  },
  {
    "mutationLabel": "M17D",
    "quantityMeasured": "abundance fitness",
    "reported": -0.414
  },
  {
    "mutationLabel": "I34K",
    "quantityMeasured": "abundance fitness",
    "reported": -0.35
  },
  {
    "mutationLabel": "Y26N",
    "quantityMeasured": "abundance fitness",
    "reported": -0.412
  },
  {
    "mutationLabel": "D4T",
    "quantityMeasured": "abundance fitness",
    "reported": -0.162
  },
  {
    "mutationLabel": "Q46G",
    "quantityMeasured": "abundance fitness",
    "reported": -0.058
  },
  {
    "mutationLabel": "S2I",
    "quantityMeasured": "abundance fitness",
    "reported": -0.026
  },
  {
    "mutationLabel": "A43T",
    "quantityMeasured": "abundance fitness",
    "reported": 0.027
  },
  {
    "mutationLabel": "T20R",
    "quantityMeasured": "abundance fitness",
    "reported": -0.65
  },
  {
    "mutationLabel": "Y26C",
    "quantityMeasured": "abundance fitness",
    "reported": -0.566
  },
  {
    "mutationLabel": "N45V",
    "quantityMeasured": "abundance fitness",
    "reported": -0.056
  },
  {
    "mutationLabel": "T6R",
    "quantityMeasured": "abundance fitness",
    "reported": -0.086
  },
  {
    "mutationLabel": "T36L",
    "quantityMeasured": "abundance fitness",
    "reported": -1.02
  },
  {
    "mutationLabel": "T18S",
    "quantityMeasured": "abundance fitness",
    "reported": 0.05
  },
  {
    "mutationLabel": "T6Y",
    "quantityMeasured": "abundance fitness",
    "reported": -0.189
  },
  {
    "mutationLabel": "F19Q",
    "quantityMeasured": "abundance fitness",
    "reported": -0.121
  },
  {
    "mutationLabel": "G14F",
    "quantityMeasured": "abundance fitness",
    "reported": -0.534
  },
  {
    "mutationLabel": "E32R",
    "quantityMeasured": "abundance fitness",
    "reported": 0.004
  },
  {
    "mutationLabel": "Y26D",
    "quantityMeasured": "abundance fitness",
    "reported": -0.739
  },
  {
    "mutationLabel": "T18C",
    "quantityMeasured": "abundance fitness",
    "reported": -0.009
  },
  {
    "mutationLabel": "T20K",
    "quantityMeasured": "abundance fitness",
    "reported": -0.873
  },
  {
    "mutationLabel": "Y26H",
    "quantityMeasured": "abundance fitness",
    "reported": -0.387
  },
  {
    "mutationLabel": "P10I",
    "quantityMeasured": "abundance fitness",
    "reported": -0.174
  },
  {
    "mutationLabel": "W15P",
    "quantityMeasured": "abundance fitness",
    "reported": -1.09
  },
  {
    "mutationLabel": "T22M",
    "quantityMeasured": "abundance fitness",
    "reported": -0.277
  },
  {
    "mutationLabel": "G14L",
    "quantityMeasured": "abundance fitness",
    "reported": -0.823
  },
  {
    "mutationLabel": "E16Y",
    "quantityMeasured": "abundance fitness",
    "reported": -0.78
  },
  {
    "mutationLabel": "P40E",
    "quantityMeasured": "abundance fitness",
    "reported": -0.757
  },
  {
    "mutationLabel": "Q46E",
    "quantityMeasured": "abundance fitness",
    "reported": 0.037
  },
  {
    "mutationLabel": "K33P",
    "quantityMeasured": "abundance fitness",
    "reported": -0.942
  },
  {
    "mutationLabel": "T6I",
    "quantityMeasured": "abundance fitness",
    "reported": -0.032
  },
  {
    "mutationLabel": "S2D",
    "quantityMeasured": "abundance fitness",
    "reported": 0.057
  },
  {
    "mutationLabel": "H30P",
    "quantityMeasured": "abundance fitness",
    "reported": -0.218
  },
  {
    "mutationLabel": "M44C",
    "quantityMeasured": "abundance fitness",
    "reported": -0.02
  },
  {
    "mutationLabel": "F27Y",
    "quantityMeasured": "abundance fitness",
    "reported": -0.027
  },
  {
    "mutationLabel": "T22D",
    "quantityMeasured": "abundance fitness",
    "reported": 0.104
  },
  {
    "mutationLabel": "V5N",
    "quantityMeasured": "abundance fitness",
    "reported": -0.033
  },
  {
    "mutationLabel": "D7G",
    "quantityMeasured": "abundance fitness",
    "reported": -0.154
  },
  {
    "mutationLabel": "S2W",
    "quantityMeasured": "abundance fitness",
    "reported": -0.406
  },
  {
    "mutationLabel": "S2M",
    "quantityMeasured": "abundance fitness",
    "reported": -0.017
  },
  {
    "mutationLabel": "R25F",
    "quantityMeasured": "abundance fitness",
    "reported": -0.451
  }
]
